All values here come from the supplement of paper PMC12042874.

Test: amyloid nucleation score (Sup35N fusion, yeast selection) (log enrichment); library NNK1; higher = more nucleation; inactive = no reads after selection;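 note: zero at mode of non-aggregating sequences after 7 days selection at 30°C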
amyloid nucleation score for assorted substances
Write no unit; give the number alone.

Use the examples below as a reference point.
Substance	Measurement label	Readout number
NIGVMVLVLDARKDKRFGKI	amyloid nucleation score	7.65
LNCGHYQIASGF	amyloid nucleation score	0.393
GLTGLTLWARATRRRVGTLS	amyloid nucleation score	-0.153
LNKTSFPWLKSYKVWRNVMD	amyloid nucleation score	1.71
FGNRELFLYFVCVKRDILVG	amyloid nucleation score	-1.23
TRRYWV	amyloid nucleation score	-0.679
WSGWAKPSHYVALGRVGSWE	amyloid nucleation score	-0.075
VFLVYLY	amyloid nucleation score	-0.608

Field: next substance
-- ask Fill in: amyloid nucleation score of `VVVCAVHDDYSINRAIEDER` is ___
-- reply -0.183
